Reported Rat Forced Swim Immobility (Means ± S.E.M.) by item:
System: Rats
Experiment: Rat forced swim test
Format: in vivo
Details: 30 mg/kg PO
Where a name gives a salt, the structure may show the parent alone.
RESULT_TYPE: Rat Forced Swim Immobility (Means ± S.E.M.)

1. CN(C)C[C@]1(c2ccc3ccccc3c2)CC[C@](C)(O)CC1; 33.4
2. CNCC1(c2ccc3ccccc3c2)CCCCC1; 25.8
3. CN[C@H](C)C1(c2ccc(Cl)c(Cl)c2)CCCCC1 (stereo in doubt) [48 E1, hydrochloride]; 26.9

----------
Biological target: human dopamine transporter (Homo sapiens (Human))
Sequence (Q01959 whole entry): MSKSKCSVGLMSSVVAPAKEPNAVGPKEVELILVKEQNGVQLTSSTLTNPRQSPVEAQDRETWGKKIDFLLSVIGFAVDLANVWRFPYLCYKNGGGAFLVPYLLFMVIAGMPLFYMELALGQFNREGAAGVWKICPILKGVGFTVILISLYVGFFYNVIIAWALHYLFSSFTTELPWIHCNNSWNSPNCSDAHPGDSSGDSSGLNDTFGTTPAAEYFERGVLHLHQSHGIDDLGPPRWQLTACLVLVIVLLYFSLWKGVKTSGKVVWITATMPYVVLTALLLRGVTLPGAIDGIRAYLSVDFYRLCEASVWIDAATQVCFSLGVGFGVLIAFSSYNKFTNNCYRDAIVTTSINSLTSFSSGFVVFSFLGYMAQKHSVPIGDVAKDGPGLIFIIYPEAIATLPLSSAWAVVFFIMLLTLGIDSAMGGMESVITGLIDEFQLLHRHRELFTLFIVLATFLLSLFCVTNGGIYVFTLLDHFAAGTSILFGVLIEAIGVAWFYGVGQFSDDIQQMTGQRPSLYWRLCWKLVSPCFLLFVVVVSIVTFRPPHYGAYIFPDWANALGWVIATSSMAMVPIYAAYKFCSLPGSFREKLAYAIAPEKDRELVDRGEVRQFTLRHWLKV
Experiment: Dopamine functional uptake assay, recombinant human transporter in CHO-K1 or HEK293 cells
Conditions: read-out: hDAT IC50
pIC50: −log10 of the molar value.
RESULT_TYPE: pIC50

1) CN(C)C[C@]1(c2ccc(Cl)c(Cl)c2)CCCC[C@H]1O (single isomer, unassigned) [153 E1]; 7.07
2) CNC[C@@]1(c2ccc(OC(F)(F)F)cc2)CCCC[C@H]1O (single isomer, unassigned) [145 E2]; 5.19
3) CNC(=O)[C@@]1(c2ccc3ccccc3c2)CCCC[C@H]1O (relative stereo); 5.76
4) OC1CCCC1NCC1(c2ccc(Cl)c(Cl)c2)CCCCC1 (racemic); 8.52
5) CN(C)C[C@@]1(c2ccc(Cl)c(Cl)c2)CCCC[C@H]1O (single isomer, unassigned) [152 E1]; 7.74
6) CN(C)C[C@]1(c2ccc(Cl)cc2)CCCC[C@H]1O (single isomer, unassigned) [154 E2]; 6.05
7) CN(C)C[C@]1(c2ccc(Cl)c(Cl)c2)CC[C@H](O)CC1; 7.66
